Hi there, I'd appreciate the recorded cell viability for every entry that follows.
System: HepG2
assay-explanation: cell viability relative to DMSO; higher = less toxic
condition-description: 72 h; 10 nM
Numbers only, in %.

Some solved entries appear below for comparison.
{"columns": ["compound", "tested-target", "cell viability [%]"],
 "data": [
  ["CC(=O)CCCCn1c(=O)c2c(ncn2C)n(C)c1=O [pentoxifylline]", "HepG2", 98.5],
  ["CC(=O)c1ccc2c(c1)N(CCCN(C)C)c1ccccc1S2 [acepromazine]", "HepG2", 96.4],
  ["CN(C)C(=O)n1nnnc1Cc1ccc(-c2ccccc2)cc1", "HepG2", 108]
]}

Batch: cell viability for all items listed.
1. NC1(c2ccc(-c3nc4ccn5c(=O)[nH]nc5c4cc3-c3ccccc3)cc2)CCC1 [MK-2206]
2. O=C1OC(c2ccc(O)cc2)(c2ccc(O)cc2)c2ccccc21 [phenolphthalein]
3. Cc1c(NC(=O)OC[C@@H]2COCCN2)cn2ncnc(Nc3ccc4c(cnn4Cc4cccc(F)c4)c3)c12
4. CC(=O)N1CCN(C)CC1 [1-acetyl-4-methylpiperazine]

a:
[93.7, 76.1, 104, 111]

Batch: cell viability for all items listed.
1. N#CC1(c2ccc(NC(=O)c3cccnc3NCc3ccncc3)cc2)CCCC1 [apatinib]
2. CN(C)CCC(c1ccc(Br)cc1)c1ccccn1 (stereo not drawn) [brompheniramine]
3. O=C1CC[C@@](c2ccccc2)(C2CCN(Cc3ccc(I)cc3)CC2)C(=O)N1 [iododexetimide]

a:
1: 105; 2: 98.5; 3: 96.4

Batch: cell viability for all items listed.
1. CN1C(C)(C)CCCC1(C)C [pempidine]
2. COc1ccc(CN2C(=O)C(=O)c3cc(OC(F)(F)F)ccc32)cc1
3. O=C(CCc1ccc(O)cc1)c1c(O)cc(O)cc1O[C@@H]1O[C@H](CO)[C@@H](O)[C@H](O)[C@H]1O [phlorizin]
4. Cc1cccc(C(C)c2c[nH]cn2)c1C (stereo not drawn) [medetomidine]
5. O=C(Nc1ccc(S(=O)(=O)Nc2ccccc2Cl)c(Cl)c1)c1ccccn1

a:
103
108
87.5
106
99.8

Batch: cell viability for all items listed.
1. COc1cccc2c1C(=O)c1c(O)c3c(c(O)c1C2=O)C[C@@](O)(/C(CO)=N/NC(=O)CCCCCN1C(=O)C=CC1=O)C[C@@H]3O[C@H]1C[C@H](N)[C@H](O)[C@H](C)O1 [aldoxorubicin]
2. c1ccc([C@H]2CNCc3ccccc32)cc1 [4-phenyl-1,2,3,4-tetrahydroisoquinoline]
3. N[C@@H](CC(=O)N1CCn2c(nnc2C(F)(F)F)C1)Cc1cc(F)c(F)cc1F [sitagliptin]

a:
94
91.7
98.9

----------
Test system: HepG2
assay-explanation: cell viability relative to DMSO; higher = less toxic
condition-description: 72 h; 10000 nM
Note to self: use Yes only for cell viability readings below 90%; a reading exactly at 90% still gets No.

For orientation, consider the following solved cases.
{"columns": ["compound", "tested-target", "assigned-category"],
 "data": [
  ["CCN(CC)C(=O)/C(C#N)=C/c1cc(O)c(O)c([N+](=O)[O-])c1 [entacapone]", "HepG2", "No"],
  ["CCc1c(C(=O)NCCc2ccc(N3CCCCC3)cc2)[nH]c2ccc(Cl)cc12", "HepG2", "No"],
  ["C/C1=C/C[C@@H](/C(C)=C/c2csc(C)n2)OC(=O)C[C@H](O)C(C)(C)C(=O)[C@H](C)[C@@H](O)[C@@H](C)CCC1 [epothilone-D]", "HepG2", "Yes"],
  ["CCC1(C)CC(=O)NC(=O)C1 [bemegride]", "HepG2", "No"],
  ["CCN(C)C(=O)Oc1cccc([C@H](C)N(C)C)c1 [rivastigmine]", "HepG2", "No"],
  ["COc1ccc(CN2C(=O)C(=O)c3cc(OC(F)(F)F)ccc32)cc1", "HepG2", "Yes"],
  ["N#C/C(=C\\c1ccc(O)c(O)c1)C(=O)NCc1ccccc1 [AG-490]", "HepG2", "Yes"],
  ["NCCCNCCCCNCCCN [spermine]", "HepG2", "No"],
  ["OCCNCCCOc1cccc(Cl)c1Cl [2,3-DCPE]", "HepG2", "Yes"]
]}

For the next question, use this compound.
q: Threshold test, cell viability < 90%: O=C(Nc1cccc(Br)c1)c1cccc(S(=O)(=O)N2CCCCCC2)c1 [AK-7]
a: Yes

----------
Hi there, I'd appreciate the recorded cell viability for every entry that follows.
Tested on: Caco-2
assay-explanation: cell viability relative to DMSO; higher = less toxic
condition-description: 72 h; 1000 nM
Numbers only, in %.

Some solved entries appear below for comparison.
{"columns": ["compound", "value-reported"],
 "data": [
  ["CN(C)CCC(c1ccc(Br)cc1)c1ccccn1 (stereo unspecified)", 101],
  ["CO[C@@]1(NC(=O)C(C(=O)O)c2ccc(O)cc2)C(=O)N2C(C(=O)O)=C(CSc3nnnn3C)CO[C@@H]21 (stereo partly specified)", 95.9],
  ["COC(=O)[C@H](c1ccccc1Cl)N1CCc2sccc2C1", 95]
]}

Batch: cell viability for all items listed.
1. CC1=C(C(=O)OC(C)C)C(c2cccc([N+](=O)[O-])c2)C(C(=O)OC2CN(C(c3ccccc3)c3ccccc3)C2)=C(N)N1 (stereo unspecified)
2. CCn1c(=O)c(-c2ccc(Cl)cc2Cl)cc2cnc(Nc3ccc(N4CCNCC4)c(F)c3)nc21
3. CC(=O)N1CCC(C(=O)N(CCCN2CCC(Cc3ccc(C(N)=O)cc3)CC2)c2ccc(C)c(Cl)c2)CC1

a:
[87.1, 80, 102]

----------
Tested on: Calu-3
assay-explanation: cell viability relative to DMSO; higher = less toxic
condition-description: 72 h; 10 nM
endpoint-label: cell viability (%)
One number for each entry, in %.

Some solved entries appear below for comparison.
{"columns": ["compound", "value-reported"],
 "data": [
  ["CC1CCN(CC[C@H]2CCCN2S(=O)(=O)c2cccc(O)c2)CC1", 94.8],
  ["O=C(CCc1ccc(O)cc1)c1c(O)cc(O)cc1O[C@@H]1O[C@H](CO)[C@@H](O)[C@H](O)[C@H]1O [phlorizin]", 95.5],
  ["O=C(c1ccccc1)c1ccc2n1CCC2C(=O)O (stereo unspecified) [ketorolac]", 109],
  ["O=C(O)C[C@H](O)C[C@H](O)/C=C/c1c(C2CC2)nc2ccccc2c1-c1ccc(F)cc1 [pitavastatin]", 98.1],
  ["CCCCCCCCCCCCCCCCCCN(CCCCCCCCCCCCCCCCCC)CCCN(CCO)CCO [avridine]", 101],
  ["COc1cc2c(cc1-c1c(C)noc1C)ncc1[nH]c(=O)n([C@H](C)c3ccccn3)c12 [I-BET151]", 99.5],
  ["CCC(C)(Oc1ccc(C2(c3ccc(OC(C)(CC)C(=O)O)cc3)CCCCC2)cc1)C(=O)O (stereo unspecified) [clinofibrate]", 93.7],
  ["CC(=O)[O-].CC(=O)[O-].N.NC1CCCCC1.[Cl-].[Cl-].[Pt+4] [satraplatin]", 119],
  ["COc1ccc(-c2nc(-c3ccc(-c4cccc(Cl)c4)o3)[nH]c2-c2ccc(OC)cc2)cc1 [neurodazine]", 96],
  ["CCCCCCOC(=O)NC(=N)c1ccc(NCc2nc3cc(C(=O)N(CCC(=O)OCC)c4ccccn4)ccc3n2C)cc1 [dabigatran-etexilate]", 82.3]
]}

Batch: cell viability for all items listed.
1. Cc1ccc(Cl)c(OC[C@H](O)CNC(C)C)c1 [1-(2-chloro-5-methylphenoxy)-3-(isopropylamino)-2-propanol]
2. CCN(C)C(=O)Oc1cccc([C@H](C)N(C)C)c1 [rivastigmine]
3. N#Cc1ccc(N2CCN(C(=O)COc3ccc4[nH]cc(CCN)c4c3)CC2)cc1 [donitriptan]
4. Cc1ccc(-n2nc(C(C)(C)C)cc2NC(=O)Nc2ccc(OCCN3CCOCC3)c3ccccc23)cc1 [doramapimod]
5. Cc1oc2ccccc2c1CNC(=O)NCc1cccs1
6. CCOCOC[C@H](C[C@H](C)C(=O)NO)NC(=O)c1ccc(Oc2ccccc2)cc1 [ONO-4817]
7. O=C(O)C1(C(=O)O)CCC1.[NH2-].[NH2-].[Pt+2] [carboplatin]

a:
[101, 95, 103, 97.3, 93.4, 85.3, 98.8]

Batch: cell viability for all items listed.
1. CCCCc1ncc(/C=C(\Cc2cccs2)C(=O)O)n1Cc1ccc(C(=O)O)cc1 [eprosartan]
2. CCN(CC)CCO[C@H]1CC[C@@]2(C)C(=CC[C@@H]3[C@@H]2CC[C@]2(C)C(=O)CC[C@@H]32)C1
3. O=C(OCCOCCO)c1ccccc1Nc1cccc(C(F)(F)F)c1 [etofenamate]

a:
1. 94.9
2. 103
3. 95.6

----------
Tested on: Caco-2
assay-explanation: cell viability relative to DMSO; higher = less toxic
condition-description: 72 h; 10 nM
Hi there, I'd appreciate the recorded cell viability for every entry that follows.
One number for each entry, in %.

Some solved entries appear below for comparison.
{"columns": ["compound", "display-unit", "cell viability"],
 "data": [
  ["Nc1nc(F)nc2c1ncn2[C@@H]1O[C@H](COP(=O)(O)O)[C@@H](O)[C@@H]1O [fludarabine-phosphate]", "%", 106],
  ["OC1=c2ccccc2=C(NC2CCCCC2)/C1=C\\c1ccccc1", "%", 92],
  ["CC(=O)N(CC(C)C(=O)O)c1c(I)cc(I)c(N)c1I (stereo unspecified) [iocetamic-acid]", "%", 99.3],
  ["O=C(CCCN1CCC(O)(c2ccc(Cl)cc2)CC1)c1ccc(F)cc1 [haloperidol]", "%", 104],
  ["Nc1nccc(Oc2ccc(NC(=O)c3cn(COP(=O)(O)O)cc(-c4ccc(F)cc4)c3=O)cc2F)c1Cl", "%", 96.8]
]}

q: Return the recorded cell viability value; entry: O=C(NCc1ccc(Oc2ccccc2)cc1)c1nc(-c2cc(Br)c(O)c(Br)c2)no1 [IOWH032]
a: 100
